- ASSAY_PROCEDURE: Plasma concentration time course after oral administration
- Assay type: in vivo, rats
- CONDITION_PARAMETERS: rat, plasma; following oral administration; read-out: time of peak plasma concentration
QUANTITY_MEASURED: Tmax

INSERT INTO results (molecule, quantity_measured, result) VALUES
  ('CC(=O)Nc1ccc(C(=O)NC(C)(C)C)cc1 [Compound A, N-tert-butyl-4-acetamidobenzamide]', 'Tmax', '3 to 4 h');

###

- ASSAY_PROCEDURE: Absolute oral bioavailability (AUC oral vs IV, 20 mg/kg)
- Type: in vivo, rats
- CONDITION_PARAMETERS: rat, blood, oral 20 mg/kg in 1% methyl cellulose vs IV 20 mg/kg in 75% PEG, read-out: absolute bioavailability
- Experimental: Blood concentrations were determined at 0, 0.083, 0.15, 0.5, 1, 2, 4, 8, and 24 hours post-IV dose and 0, 0.5, 1, 2, 4 and 8 hours post-oral dose. Four animals were dosed orally and four animals were dosed intravenously. The blood samples were analyzed by HPLC. Detection was by UV at 262 nm. Responses were converted to concentrations by comparison to responses from calibration standards injected onto the column. The resulting concentrations were used to calculate the AUC.
QUANTITY_MEASURED: bioavailability (%)

INSERT INTO assay_data (molecule, result_number) VALUES
  ('CC(=O)Nc1ccc(C(=O)NC(C)(C)C)cc1 [Compound A, N-tert-butyl-4-acetamidobenzamide]', 52);
